B1: Far upstream element-binding protein 1, residues 184 to 257; numbered along this chain, Q96AE4 (parent)
chain: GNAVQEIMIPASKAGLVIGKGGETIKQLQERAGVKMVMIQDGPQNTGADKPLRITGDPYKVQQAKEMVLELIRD

Variants of: B1
Experiment: abundance fitness (aPCA) (normalised: wild type 0, dead -1); higher = more abundant; growth selection in yeast, the domain comes from the species named
Settings: Homo sapiens
measuredProperty: abundance fitness
Numbers only.

Worked cases, answers included:
1. GNAVQEIMIPASKAGLVIGKGGRTIKQLQERAGVKMVMIQDGPQNTGADKPLRITGDPYKVQQAKEMVLELIRD
0.136
2. GNAVQEIMIPASKAGLVIGKGGETIKQLQERAGVKEVMIQDGPQNTGADKPLRITGDPYKVQQAKEMVLELIRD
-0.582
3. GNAVQEIMIPASKAGLVIGKGGETIIQLQERAGVKMVMIQDGPQNTGADKPLRITGDPYKVQQAKEMVLELIRD
0.013
4. GNAVQEIMIPASKDGLVIGKGGETIKQLQERAGVKMVMIQDGPQNTGADKPLRITGDPYKVQQAKEMVLELIRD
-0.109

Give one value of abundance fitness per listed variant.
1. GNAVQEIMIPASKAGLVIGKGGETIKQLQERARVKMVMIQDGPQNTGADKPLRITGDPYKVQQAKEMVLELIRD
2. GNAVQEIMIPASKAGLVIGKGGETIKQLWERAGVKMVMIQDGPQNTGADKPLRITGDPYKVQQAKEMVLELIRD

1: -0.119; 2: -0.345
